Reference source for all entries: ChEMBL document CHEMBL3763140

- System: Cerebrospinal fluid
- assay.remarks: Drug uptake in cerebro spinal fluid of PCP stimulated Sprague-Dawley rat hyperlocomotion model at 10 mg/kg, po
- Assay type: ADME, organism-based
- test.settings: in vivo, read-out: Drug uptake
readout: concentration
Please give the number followed by its unit.

Request: Query (molecule): Cc1ccc(C(C)(C)O)cc1-c1ccc2c(n1)n(C)c(=O)n2CC(C)(C)C ; field requested: concentration
Result: 26 nM

----------
- assay.remarks: Total plasma concentration in PCP stimulated Sprague-Dawley rat hyperlocomotion model at 10 mg/kg, po after 2 hrs
- Assay type: ADME, organism-based
readout: concentration at 2 h

Request: Query (compound): Cc1ccc(C(C)(C)O)cc1-c1ccc2c(n1)n(C)c(=O)n2CC(C)(C)C ; field requested: concentration at 2 h
Result: 1800 nM
